Target of assay: mTOR (Homo sapiens (Human), UniProt P42345)
Sequence (P42345 2156-2469): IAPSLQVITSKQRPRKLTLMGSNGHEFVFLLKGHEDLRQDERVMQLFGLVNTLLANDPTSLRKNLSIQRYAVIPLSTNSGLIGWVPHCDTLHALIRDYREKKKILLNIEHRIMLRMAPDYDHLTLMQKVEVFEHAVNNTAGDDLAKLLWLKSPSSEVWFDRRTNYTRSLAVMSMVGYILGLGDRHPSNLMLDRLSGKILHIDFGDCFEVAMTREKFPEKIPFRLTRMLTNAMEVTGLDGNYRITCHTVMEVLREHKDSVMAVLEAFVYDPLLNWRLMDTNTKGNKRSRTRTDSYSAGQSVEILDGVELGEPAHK
Listed compounds paired with reported Ki
Please don't drop the unit; write it after the number.

Example cases with answers are listed next.
COc1cccc(-c2ccc3ncc4c(c3n2)n(C2CCN(C(C)=O)CC2)c(=O)n4C)c1 ... 10.3 nM
COCCn1c(=O)n(C)c2cnc3ccc(-c4ccc(OC)nc4)nc3c21 ... 7.13 nM

QUERY: Entry `CCNC(=O)Nc1ccc(-c2ccc3ncc4c(c3n2)n(C2CCN(C(=O)OC(C)(C)C)CC2)c(=O)n4C)cc1` has what Ki?
RESULT: 14.4 nM

QUERY: Again, but for `COc1cccc(-c2ccc3ncc4c(c3n2)n(C2CCN(C(=O)[C@H](C)O)CC2)c(=O)n4C)c1`
RESULT: 8.51 nM

QUERY: Again, but for `CN(C)c1ccc(-c2ccc3ncc4c(c3n2)n(-c2ccc(C(C)(C)C#N)cc2)c(=O)n4C)cn1`
RESULT: 4.67 nM

QUERY: Again, but for `CC(=O)N1CCC(n2c(=O)n(C)c3cnc4ccc(-c5ccc(S(C)(=O)=O)cc5)nc4c32)CC1`
RESULT: 35.3 nM

----------
Target of assay: PI3-Kα (Mus musculus (Mouse), UniProt P42337)
Sequence (P42337 whole entry, the tested form may be a part): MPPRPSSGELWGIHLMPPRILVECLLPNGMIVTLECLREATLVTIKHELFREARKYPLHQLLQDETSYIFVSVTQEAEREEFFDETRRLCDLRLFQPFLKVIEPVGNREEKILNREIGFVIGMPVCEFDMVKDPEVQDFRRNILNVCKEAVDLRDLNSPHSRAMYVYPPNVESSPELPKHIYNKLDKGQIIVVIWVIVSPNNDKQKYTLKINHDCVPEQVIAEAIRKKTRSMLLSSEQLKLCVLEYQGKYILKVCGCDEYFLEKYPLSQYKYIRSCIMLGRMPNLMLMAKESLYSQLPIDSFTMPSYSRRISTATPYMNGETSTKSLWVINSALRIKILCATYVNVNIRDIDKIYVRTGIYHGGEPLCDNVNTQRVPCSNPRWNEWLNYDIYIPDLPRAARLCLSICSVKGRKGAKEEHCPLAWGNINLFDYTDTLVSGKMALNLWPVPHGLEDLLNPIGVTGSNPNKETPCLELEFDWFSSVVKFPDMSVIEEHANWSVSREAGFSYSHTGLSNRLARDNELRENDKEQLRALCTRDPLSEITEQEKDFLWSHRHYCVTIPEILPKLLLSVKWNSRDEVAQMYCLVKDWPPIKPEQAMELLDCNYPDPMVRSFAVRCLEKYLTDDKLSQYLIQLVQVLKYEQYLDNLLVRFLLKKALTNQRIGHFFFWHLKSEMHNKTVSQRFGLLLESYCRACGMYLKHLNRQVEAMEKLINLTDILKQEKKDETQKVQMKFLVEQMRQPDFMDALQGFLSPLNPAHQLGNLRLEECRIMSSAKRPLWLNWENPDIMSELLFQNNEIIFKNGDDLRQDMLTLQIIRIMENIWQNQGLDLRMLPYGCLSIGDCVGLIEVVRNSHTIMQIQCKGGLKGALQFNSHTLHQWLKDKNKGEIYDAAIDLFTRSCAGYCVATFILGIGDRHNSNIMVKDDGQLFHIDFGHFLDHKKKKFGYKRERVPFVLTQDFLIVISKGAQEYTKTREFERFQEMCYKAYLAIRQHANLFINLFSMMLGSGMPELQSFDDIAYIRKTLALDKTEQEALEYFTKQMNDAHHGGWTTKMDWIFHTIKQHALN
Sequence (P26450 whole entry partner, the tested form may be a part): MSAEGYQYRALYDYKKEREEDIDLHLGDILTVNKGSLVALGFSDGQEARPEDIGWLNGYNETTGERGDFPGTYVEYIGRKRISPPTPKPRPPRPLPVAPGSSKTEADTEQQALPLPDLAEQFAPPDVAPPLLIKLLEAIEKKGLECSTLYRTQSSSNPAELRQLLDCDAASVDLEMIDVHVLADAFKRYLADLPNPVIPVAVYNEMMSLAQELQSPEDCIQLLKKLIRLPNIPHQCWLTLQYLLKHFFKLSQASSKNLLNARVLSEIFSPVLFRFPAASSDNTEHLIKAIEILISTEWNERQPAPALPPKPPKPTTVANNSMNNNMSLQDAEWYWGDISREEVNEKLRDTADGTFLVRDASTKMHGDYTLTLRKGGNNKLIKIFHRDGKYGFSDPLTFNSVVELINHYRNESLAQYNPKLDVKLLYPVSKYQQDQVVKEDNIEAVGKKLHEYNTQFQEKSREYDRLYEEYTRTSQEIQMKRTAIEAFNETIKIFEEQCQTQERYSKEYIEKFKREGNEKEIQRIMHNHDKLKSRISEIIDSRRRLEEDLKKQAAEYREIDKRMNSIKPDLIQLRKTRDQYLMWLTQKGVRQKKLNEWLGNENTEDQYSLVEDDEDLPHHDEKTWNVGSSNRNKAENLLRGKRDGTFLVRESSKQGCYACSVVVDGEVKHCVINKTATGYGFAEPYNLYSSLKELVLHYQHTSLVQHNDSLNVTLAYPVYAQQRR
Endpoint label: Ki (nM)
Give just the number in nM; leave the unit off.

CC(=O)N1CCC(n2c(=O)n(C)c3cnc4ccc(-c5cnc6ccccc6c5)nc4c32)CC1 ... 0.98
CC(C)(C#N)c1ccc(-n2c(=O)[nH]c3cnc4ccc(-c5cnc6ccccc6c5)nc4c32)cc1 ... 4.4
O=C(OCc1ccccc1)N1CCC(n2c(=O)[nH]c3cnc4ccc(-c5cnc6ccccc6c5)nc4c32)CC1 ... 7.77
Cn1c(=O)n(C2CCN(C(=O)OCc3ccccc3)CC2)c2c3nc(-c4cnc5ccccc5c4)ccc3ncc21 ... 2.91
CNC(=O)N1CCC(n2c(=O)n(C)c3cnc4ccc(-c5cnc(OC)nc5)nc4c32)CC1 ... 2.49
CN(C)c1ccc(-c2ccc3ncc4c(c3n2)n([C@H]2CC[C@H](O)CC2)c(=O)n4C)cn1 ... 0.666

QUERY: Entry `CN(C)C(=O)CN1CCC(n2c(=O)n(C)c3cnc4ccc(-c5cnn(C)c5)nc4c32)CC1` has what Ki?
RESULT: 14.7

QUERY: Again, but for `Cn1c(=O)n([C@H]2CC[C@H](N)CC2)c2c3nc(-c4cnc5ccccc5c4)ccc3ncc21`
RESULT: 2.3

----------
Target of assay: PI3-Kα (Mus musculus (Mouse), UniProt P42337)
Protocol notes: PI3-Kα biochemical assay (in vitro kinase assay, fluorescence polarization)
Conditions: Ki calculated from IC50, [ATP]=30 uM, Km=25 uM
Listed compounds paired with reported PI3Ka Ki
Give just the number in nM; leave the unit off.

Cn1c(=O)n(C2CCN(C(=O)CO)CC2)c2c3nc(-c4cccc5[nH]ncc45)ccc3ncc21 ... 0.575
CN(C)c1ccc(-c2ccc3ncc4c(c3n2)n(C2CCN(C(N)=O)CC2)c(=O)n4C)cn1 ... 1.05

QUERY: Entry `Cn1cc(-c2ccc3ncc4c(c3n2)n(C2CCN(CC(N)=O)CC2)c(=O)n4C)cn1` has what PI3Ka Ki?
RESULT: 4.63

QUERY: Again, but for `Cc1ccc(-c2ccc3ncc4c(c3n2)n(C2CCN(CCO)CC2)c(=O)n4C)cn1`
RESULT: 1.77

QUERY: Again, but for `CC(C)OC(=O)N1CCC(n2c(=O)n(C)c3cnc4ccc(-c5cnc6ccccc6c5)nc4c32)CC1`
RESULT: 2.89

QUERY: Again, but for `COc1ccccc1-c1ccc2ncc3c(c2n1)n(C1CCN(C(=O)CO)CC1)c(=O)n3C`
RESULT: 118

QUERY: Again, but for `C[C@H](O)C(=O)N1CCC(n2c(=O)n(C)c3cnc4ccc(-c5ccnc6[nH]ncc56)nc4c32)CC1`
RESULT: 1.04

----------
Target of assay: mTOR (Homo sapiens (Human))
pKi: −log10 of the molar value.
Binary classification by pKi, with 8 as an inclusive lower bound for Satisfied; all other cases are Not satisfied.

As a guide, the following entries are already answered.
CNC(=O)N1CCC(n2c(=O)n(C)c3cnc4ccc(-c5cnc6ccccc6c5)nc4c32)CC1 [Compound 123] ... Satisfied
Cc1ccc(-c2ccc3ncc4c(c3n2)n([C@H](C)CO)c(=O)n4C)cn1 [Compound 231] ... Not satisfied
COc1ncc(-c2ccc3ncc4c(c3n2)n(C2CCN(CC(=O)N(C)C)CC2)c(=O)n4C)cn1 [Compound 163] ... Not satisfied
CN(C)c1ccc(-c2ccc3ncc4c(c3n2)n(C2CCN(C(=O)C(C)(C)C)CC2)c(=O)n4C)cn1 [Compound 205] ... Satisfied
CN(C)c1ccc(-c2ccc3ncc4[nH]c(=O)n(-c5ccc(C(C)(C)C#N)cc5)c4c3n2)cn1 [Compound 107] ... Satisfied
Cn1c(=O)n([C@H]2CC[C@H](O)CC2)c2c3nc(-c4ccc5[nH]ncc5c4)ccc3ncc21 [Compound 267] ... Satisfied

Let's switch to this compound now.
QUERY: In plain terms: is recorded pKi at least 8 for CN(C)c1ccc(-c2ccc3ncc4c(c3n2)n(C2CCN(C(N)=O)CC2)c(=O)n4C)cn1 [Compound 197] ?
RESULT: Satisfied

----------
Listed compounds paired with reported PI3Ka Ki
Target of assay: PI3-Kα (Mus musculus (Mouse), UniProt P42337)
Protocol notes: PI3-Kα biochemical assay (in vitro kinase assay, fluorescence polarization);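 also: Insect-cell-expressed mouse p110/p85 complex converting PI(4,5)P2, product PI(3,4,5)P3 detected by displacing TAMRA-tagged PI(3,4,5)P3 from Grip1 PH domain, lower polarization means more product, room temperature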
Conditions: Ki calculated from IC50, [ATP]=30 uM, Km=25 uM
Give just the number in nM; leave the unit off.

QUERY: Entry CCOC(=O)N1CCC(n2c(=O)n(C)c3cnc4ccc(-c5cnc6ccccc6c5)nc4c32)CC1 [Compound 127] has what PI3Ka Ki?
RESULT: 1.38

QUERY: Again, but for C[C@H](CO)n1c(=O)n(C)c2cnc3ccc(-c4cnc5[nH]ncc5c4)nc3c21 [Compound 238]
RESULT: 0.438

QUERY: Again, but for CNC(=O)N1CCC(n2c(=O)n(C)c3cnc4ccc(-c5ccc(OC)nc5)nc4c32)CC1 [Compound 142]
RESULT: 1.15

QUERY: Again, but for Cn1cc(-c2ccc3ncc4c(c3n2)n(C2CCOCC2)c(=O)n4C)cn1 [Compound 203]
RESULT: 5.17

QUERY: Again, but for COc1ccc(-c2ccc3ncc4c(c3n2)n(C2CCOCC2)c(=O)n4C)cn1 [Compound 140]
RESULT: 0.668

QUERY: Again, but for Cn1c(=O)n(C2CCOCC2)c2c3nc(-c4cnn(CCO)c4)ccc3ncc21 [Compound 208]
RESULT: 24.4

QUERY: Again, but for CN(C)c1ccc(-c2ccc3ncc4c(c3n2)n(C2CCN(C(=O)C(C)(C)O)CC2)c(=O)n4C)cn1 [Compound 209]
RESULT: 0.264

QUERY: Again, but for COc1ncc(-c2ccc3ncc4c(c3n2)n(C2CCN(CCO)CC2)c(=O)n4C)cn1 [Compound 185]
RESULT: 11.9

----------
Target of assay: PI3-Kα (Mus musculus (Mouse))
Protocol notes: PI3-Kα biochemical assay (in vitro kinase assay, fluorescence polarization)
Conditions: Ki calculated from IC50, [ATP]=30 uM, Km=25 uM
Listed compounds paired with reported PI3Ka Ki
Give just the number in µM; leave the unit off.

Example cases with answers are listed next.
COc1ccc(-c2ccc3ncc4c(c3n2)n(C2CCOCC2)c(=O)n4CCO)cn1 ... 0.0757
COc1ccc(-c2ccc3ncc4[nH]c(=O)n([C@H]5CC[C@H](OCCO)CC5)c4c3n2)cn1 ... 0.000644
CN(C)c1ccc(-c2ccc3ncc4c(c3n2)n(C2CCOCC2)c(=O)n4CCO)cn1 ... 0.319

Switching to the query record.
QUERY: Entry `CC(=O)N1CCC(n2c(=O)n(C)c3cnc4ccc(-c5ccc(S(C)(=O)=O)cc5)nc4c32)CC1` has what PI3Ka Ki?
RESULT: 0.0242

----------
For reference, pKi measured on mTOR (Homo sapiens (Human), UniProt P42345):
In textbook form, pKi equals minus log to base ten of the concentration in mol/L.

Example cases with answers are listed next.
Cc1ccc(-c2ccc3ncc4c(c3n2)n(-c2ccc(C(C)(C)C#N)cc2)c(=O)n4C)cn1 ... 7.57
CN1CCC(n2c(=O)n(C)c3cnc4ccc(-c5cnc6ccccc6c5)nc4c32)CC1 ... 8.31
COc1ncc(-c2ccc3ncc4c(c3n2)n([C@H]2CC[C@H](OCCO)CC2)c(=O)n4C)cn1 ... 7.87

Switching to the query record.
QUERY: Entry `COC(=O)N1CCC(n2c(=O)n(C)c3cnc4ccc(-c5cnc6ccccc6c5)nc4c32)CC1` has what pKi?
RESULT: 7.91

----------
For reference, Ki measured on UniProt:P42345:
Give just the number in nM; leave the unit off.

C[C@H](CO)n1c(=O)n(C)c2cnc3ccc(-c4cccc5[nH]ccc45)nc3c21 ... 6.66
Cc1ccc(-c2ccc3ncc4c(c3n2)n(C2CCN(C)CC2)c(=O)n4C)cn1 ... 40.1
Cc1ccc(-c2ccc3ncc4c(c3n2)n(C2CCN(C(=O)CN)CC2)c(=O)n4C)cn1 ... 3.84
Cn1c(=O)n(C2CCN(C(=O)CO)CC2)c2c3nc(-c4cnc5[nH]ncc5c4)ccc3ncc21 ... 4.06
CN(C)c1ccc(-c2ccc3ncc4c(c3n2)n(C2CCN(C(=O)CO)CC2)c(=O)n4C)cn1 ... 2.29
CN1CCC(n2c(=O)n(C)c3cnc4ccc(-c5cnc6[nH]ncc6c5)nc4c32)CC1 ... 5.67
COc1ncc(-c2ccc3ncc4c(c3n2)n(C2CCOCC2)c(=O)n4C)cn1 ... 6.42
CN(C)c1ccc(-c2ccc3ncc4c(c3n2)n([C@H]2CC[C@H](OCCO)CC2)c(=O)n4C)cn1 ... 9.02
COc1ccc(-c2ccc3ncc4[nH]c(=O)n([C@H]5CC[C@H](OCCO)CC5)c4c3n2)cn1 ... 2.14
CNC(=O)N1CCC(n2c(=O)n(C)c3cnc4ccc(-c5ccc(N(C)C)nc5)nc4c32)CC1 ... 3.01

QUERY: Entry `COc1ccc(-c2ccc3ncc4c(c3n2)n(C2CCN(C(=O)CO)CC2)c(=O)n4C)cc1` has what Ki?
RESULT: 3.42

QUERY: Again, but for `COc1ncc(-c2ccc3ncc4[nH]c(=O)n(-c5ccc(C(C)(C)C#N)cc5)c4c3n2)cc1F`
RESULT: 9.03

QUERY: Again, but for `COc1ccc(-c2ccc3ncc4[nH]c(=O)n(Cc5ccccc5)c4c3n2)cn1`
RESULT: 8.44

QUERY: Again, but for `COc1ccc(-c2ccc3ncc4c(c3n2)n(C2CCN(C(C)=O)CC2)c(=O)n4C)cc1`
RESULT: 14.6

QUERY: Again, but for `COc1ncc(-c2ccc3ncc4c(c3n2)n(C2CCN(CCO)CC2)c(=O)n4C)cn1`
RESULT: 25.2

Where these numbers come from: patent US8791131B2
